Numbers sourced from patent US20260258115A1.

# assayedSystem: RSV postfusion F (postF), F deltaFP (respiratory syncytial virus, UniProt P03420 26-513)
# experimentalProtocol: BLI, IgG on sensor, 100 nM antigen
valueType: pKd
Keep it numeric: pKd is minus log10 of the concentration in mol/L.

binder	pKd
ADI-41361 (antibody, V domains shown, IgG1; also called Ab 658) VH: QVQLQESGGGVVQPGRSLRLSCAASGFAFSDYAMDWVRQAPGKGLEWVAVISFDGSNKFYADSVKGRFTISRDNSENTLFLQMNSLRAEDTAVYYCVRDFVPCSGATCYLPPVYWGRGTLVTVSS VL: EIVLTQSPATLSVSPGERATLSCRASQSVSSDLAWYQQKPGQAPRLLIYGASTRATGIPARFSGSGSGTEFTLTISRLQSEDFAVYFCQQYNNWPSWTFGQGTKVEIK	9.42
ADI-41378 (antibody, V domains shown, IgG1) VH: EVQLVESGPGLVKPSGTLSLTCAVSGDSISSSNWWSWVRQPPGKGLEWIGEVSHSGNTDYNPSLKSRVTISVDKSKNQFSLKLSSVTAADTAVYYCARPSPCSGGSCYWFFDLWGRGTLVTVSS VL: DIRLTQSPSSLSASVGDRVTITCRASQTINAYLNWYQQRPGKAPNLLIYAASSLQSGVPSRFSGSGSGTDFTLTISSLQPEDFATYYCQQSYKTAYTFGQGTKVEIK	9.13
ADI-41391 (antibody, V domains shown, IgG1) VH: EVQLLESGPGLVKPSETLSLTCTVSGGSISGYYWSWIRQPPGKGLEWIGYIYHSGGSTNYNPSLKSRVTISVDTSKNQFSLKVSSVTAADTAVYYCARLARVVTTFDFWGQGALVTVSS VL: QPVLTQPASVSGSPGQSITISCTGTSSDVGGYNYVSWYQQKPGTAPKLMIFDVSNRPSGVSNRFSGSKSDNTASLTISGLQAEDEADYYCSSYTSSTNLVFGGGTKLTVL	9.32
ADI-41451 (antibody, V domains shown, IgG1; also called Ab 735) VH: EVQLVESGGGLVQPGGSLRLSCAAAGFTFNNYEMHWVRQAPGKGLEWVSCVTSSGTATYYADSVKGRFTVSRDNAKKSLQLQMNSLRAEDTAVYYCARELYLGEDYYYGLDVWGQGTTVTVSS VL: SYELTQPPSVSVSPGQTASISCSGDKLRNKHTCWYQHKSGQSPVLLIYQDNRRPSGIPDRLSGSKSGTTATLTISWTQAMDEAEYYCQAWDSNSAVIFGGGTKLTVL	8.78

Reported pKd for ADI-41379 (antibody, V domains shown, IgG1) VH: QVQLVQSGAEVKKPGESLKISCKGSGYSFSSFWIGWVRQMPGKGLEWMGIIYPGDSDTRYSPSFKGQVTISADTSISTAYLQWSSLKASDTAMYYCAKSIVGSTGSFDPWGQGTLVTVSS VL: DIQMTQSPSSLSASVGDRVTITCQASQDISNFLNWYQQKPGKAPKLLIYDASNLRTGVPSRFSGSGSGTEFTFTISSLQPEDIATYYCQQYHDLPPLTFGGGTKVDIK was 8.96
